Biological target: mouse VISTA (mVISTA) (Mus musculus, UniProt Q9D659)
Construct: expressed in transfected cells; host or cells: Human embryonic kidney 293T cells
Test: Cell-Based Binding High-Content Assay For mVISTA (HC CBA mVISTA)
Settings: cell-based binding high-content assay, mVISTA; the 16th table; read-out: HC CBA mVISTA IC50
pIC50: −log10 of the molar value. Positions of bridges follow the written chain, without caps; N, C: chain ends. Non-standard residues stand in square brackets, D forms with d. Residues, ends and D or L forms follow the SMILES beside them. 2Nal = N[C@@H](Cc1ccc2ccccc2c1)C(=O)O; Ahp(2) = CCCCC[C@H](N)C(=O)O; NHexGly = CCCCCCNCC(=O)O
Everything with pIC50 lower than 8 is n; everything else, including exactly 8, is y.

Some entries whose results are on file:
Hello, I need to know if CCCCCCN1CC(=O)N[C@@H](Cc2ccc(O)cc2)C(=O)N[C@@H](CC(C)C)C(=O)NCC(=O)N[C@@H](CCCNC(=N)N)C(=O)N[C@@H](Cc2ccc(O)cc2)C(=O)N[C@@H](CCCCC)C(=O)N2CCC[C@H]2C(=O)N[C@@H](C(C)C)C(=O)N[C@@H](CC(=O)O)C(=O)N[C@H](C(=O)NCC(N)=O)CSCC(=O)N[C@@H](Cc2ccc3ccccc3c2)C(=O)N[C@@H](Cc2ccc(O)cc2)C(=O)N[C@@H](CC(=O)O)C1=O [Ex 1298] ({CH2CO}-[2Nal]YD[NHexGly]YLGRY[Ahp(2)]PVDCG-NH2; thioether N-14) has measured pIC50 not below 8. Thanks!
n

Tell me whether pIC50 is at least 8 here: CCCCCCN1CC(=O)N[C@@H](Cc2ccc(O)cc2)C(=O)N[C@@H](CC(C)C)C(=O)NCC(=O)N[C@@H](CCCNC(=N)N)C(=O)N[C@@H](CC(C)C)C(=O)N[C@@H](CCCCC)C(=O)N2CCC[C@H]2C(=O)N[C@@H](C(C)C)C(=O)N[C@@H](CO)C(=O)N[C@H](C(=O)NCC(N)=O)CSCC(=O)N[C@@H](Cc2ccc3ccccc3c2)C(=O)N[C@@H](Cc2ccc(O)cc2)C(=O)N[C@@H](CC(=O)O)C1=O [Ex 1275] ({CH2CO}-[2Nal]YD[NHexGly]YLGRL[Ahp(2)]PVSCG-NH2; thioether N-14)
n

Please tell me: is the molecule CCCCCCN1CC(=O)N[C@@H](Cc2ccc(O)cc2)C(=O)N[C@@H](C(C)C)C(=O)NCC(=O)N[C@@H](CCCNC(=N)N)C(=O)N[C@@H](CC(C)C)C(=O)N[C@@H](CCCCC)C(=O)N2CCC[C@H]2C(=O)N[C@@H](C(C)C)C(=O)N[C@@H](CC(=O)O)C(=O)N[C@H](C(=O)N[C@@H](CC(C)C)C(N)=O)CSCC(=O)N[C@@H](Cc2ccc3ccccc3c2)C(=O)N[C@@H](Cc2ccc(O)cc2)C(=O)N[C@@H](CC(=O)O)C1=O [Ex 1309] ({CH2CO}-[2Nal]YD[NHexGly]YVGRL[Ahp(2)]PVDCL-NH2; thioether N-14) at or over 8 in terms of pIC50?
y

As a next step, examine the molecule that follows.
Form field: pIC50 at least 8? Entry: CCCCCCN1CC(=O)N[C@@H](Cc2ccc(O)cc2)C(=O)N[C@@H](CC(C)C)C(=O)NCC(=O)N[C@@H](CCCNC(=N)N)C(=O)N[C@@H](CC(N)=O)C(=O)N[C@@H](CCCCC)C(=O)N2CCC[C@H]2C(=O)N[C@@H](C(C)C)C(=O)N[C@@H](CO)C(=O)N[C@H](C(=O)NCC(N)=O)CSCC(=O)N[C@@H](Cc2ccc3ccccc3c2)C(=O)N[C@@H](Cc2ccc(O)cc2)C(=O)N[C@@H](CC(=O)O)C1=O [Ex 1295] ({CH2CO}-[2Nal]YD[NHexGly]YLGRN[Ahp(2)]PVSCG-NH2; thioether N-14)
n

* * *

Molecular target: mouse VISTA (mVISTA) (Mus musculus, UniProt Q9D659)
Construct: expressed in transfected cells; host or cells: Human embryonic kidney 293T cells
Sequence (Q9D659 33-308): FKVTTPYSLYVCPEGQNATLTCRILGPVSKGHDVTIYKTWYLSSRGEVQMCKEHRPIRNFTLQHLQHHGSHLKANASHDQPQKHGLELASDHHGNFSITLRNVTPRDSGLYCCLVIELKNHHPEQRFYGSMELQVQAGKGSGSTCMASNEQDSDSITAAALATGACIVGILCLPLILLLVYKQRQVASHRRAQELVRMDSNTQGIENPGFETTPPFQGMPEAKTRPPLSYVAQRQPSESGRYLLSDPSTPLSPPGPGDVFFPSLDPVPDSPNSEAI
Assay: Cell-Based Binding High-Content Assay For mVISTA (HC CBA mVISTA)
Conditions: 293T cells expressing mouse VISTA; competition with biotinylated peptide (2 nM); read-out: HC CBA mVISTA IC50
Positions of bridges follow the written chain, without caps; N, C: chain ends. Non-standard residues stand in square brackets, D forms with d. Residues, ends and D or L forms follow the SMILES beside them. Cit = NC(=O)NCCC[C@H](N)C(=O)O; Ahp(2) = CCCCC[C@H](N)C(=O)O; NHexGly = CCCCCCNCC(=O)O; Nle = CCCC[C@H](N)C(=O)O; Abu = CC[C@H](N)C(=O)O
observable: IC50 (nM)
One number for each entry, in nM.

Examples from the recorded data:
In one line, give reported IC50 of the entry CCCCCCN1CC(=O)N[C@@H](Cc2ccc(O)cc2)C(=O)N[C@@H](CCCC)C(=O)N[C@@H](CC(N)=O)C(=O)N[C@@H](CCCNC(N)=O)C(=O)N[C@@H](CC(C)C)C(=O)N[C@@H](CCCCC)C(=O)N2CCC[C@H]2C(=O)N[C@@H](C(C)C)C(=O)N[C@@H](CC(=O)O)C(=O)N[C@H](C(=O)NCC(=O)O)CSCC(=O)N[C@@H](Cc2ccccc2)C(=O)N[C@@H](Cc2ccc(O)cc2)C(=O)N[C@@H](CC(=O)O)C1=O [Example 1019] ({CH2CO}-FYD[NHexGly]Y[Nle]N[Cit]L[Ahp(2)]PVDCG-OH; thioether N-14) .
7.9

Name the recorded IC50 of the compound listed here: CCCCCCN1CC(=O)N[C@@H](Cc2ccc(O)cc2)C(=O)N[C@@H](CC)C(=O)NCC(=O)N[C@@H](CCCNC(=N)N)C(=O)N[C@@H](CC(C)C)C(=O)N[C@@H](CCCCC)C(=O)N2CCC[C@H]2C(=O)N[C@@H](C(C)C)C(=O)N[C@@H](CO)C(=O)N[C@H](C(=O)NCC(=O)O)CSCC(=O)N[C@@H](Cc2ccccc2)C(=O)N[C@@H](Cc2ccc(O)cc2)C(=O)N[C@@H](CC(=O)O)C1=O [Example 1062] ({CH2CO}-FYD[NHexGly]Y[Abu]GRL[Ahp(2)]PVSCG-OH; thioether N-14)
15.2

State, in one line, measured IC50 of CCCCCCN1CC(=O)N[C@@H](Cc2ccc(O)cc2)C(=O)N[C@@H](CCCC)C(=O)N[C@@H](CC(=O)O)C(=O)N[C@@H](CCCNC(=N)N)C(=O)N[C@@H](CC(C)C)C(=O)N[C@@H](CCCCC)C(=O)N2CCC[C@H]2C(=O)N[C@@H](C(C)C)C(=O)N[C@@H](CC(=O)O)C(=O)N[C@H](C(=O)NCC(=O)O)CSCC(=O)N[C@@H](Cc2ccccc2)C(=O)N[C@@H](Cc2ccc(O)cc2)C(=O)N[C@@H](CC(=O)O)C1=O [Example 1010] ({CH2CO}-FYD[NHexGly]Y[Nle]DRL[Ahp(2)]PVDCG-OH; thioether N-14)
5.6

As a next step, examine the compound that follows.
Answer with reported IC50 of CCCCCCN1CC(=O)N[C@@H](Cc2ccc(O)cc2)C(=O)N[C@@H](CC(C)C)C(=O)N[C@@H](CC(=O)O)C(=O)N[C@@H](CCCNC(=N)N)C(=O)N[C@@H](CC(C)C)C(=O)N[C@@H](CCCCC)C(=O)N2CCC[C@H]2C(=O)N[C@@H](C(C)C)C(=O)N[C@@H](CO)C(=O)N[C@H](C(=O)NCC(N)=O)CSCC(=O)N[C@@H](Cc2ccccc2)C(=O)N[C@@H](Cc2ccc(O)cc2)C(=O)N[C@@H](CC(=O)O)C1=O [Example 1041] ({CH2CO}-FYD[NHexGly]YLDRL[Ahp(2)]PVSCG-NH2; thioether N-14)
24.9

* * *

Provide the reported IC50 of each item.
Target: mouse VISTA (mVISTA) (Mus musculus)
Construct: expressed in transfected cells; host or cells: Human embryonic kidney 293T cells
Assay: Cell-Based Binding High-Content Assay For mVISTA (HC CBA mVISTA)
Details: 293T cells expressing mouse VISTA; competition with biotinylated peptide (2 nM); read-out: HC CBA mVISTA IC50
From the text: Cell-Based Binding High-Content Assay For mVISTA Human embryonic kidney 293T cells (293T) expressing mouse VISTA (mVISTA) were used for the assessment of compounds competing with the binding of a biotinylated peptide. […] The plates were washed 3 times in dPBS, sealed, and read on a CellInsight NXT High Content Screening Platform IC903000 (Thermo Scientific). […]
Positions of bridges follow the written chain, without caps; N, C: chain ends. Non-standard residues stand in square brackets, D forms with d. Residues, ends and D or L forms follow the SMILES beside them. Ahp(2) = CCCCC[C@H](N)C(=O)O; NHexGly = CCCCCCNCC(=O)O; Nle = CCCC[C@H](N)C(=O)O; Nva = CCC[C@H](N)C(=O)O
Numbers only, in nM.

Solved entries:
Tell us which IC50 value is on record for CCCCCCN1CC(=O)N[C@@H](Cc2ccc(O)cc2)C(=O)N[C@@H](CCC)C(=O)NCC(=O)N[C@@H](CCCNC(=N)N)C(=O)N[C@@H](CC(C)C)C(=O)N[C@@H](CCCCC)C(=O)N2CCC[C@H]2C(=O)N[C@@H](C(C)C)C(=O)N2CCC[C@H]2C(=O)N[C@H](C(=O)NCC(N)=O)CSCC(=O)N[C@@H](Cc2ccccc2)C(=O)N[C@@H](Cc2ccc(O)cc2)C(=O)N[C@@H](CC(=O)O)C1=O [Example 1102] ({CH2CO}-FYD[NHexGly]Y[Nva]GRL[Ahp(2)]PVPCG-NH2; thioether N-14)
25.7

Return reported IC50. Input compound: CCCCCCN1CC(=O)N[C@@H](Cc2ccc(O)cc2)C(=O)N[C@@H](C(C)C)C(=O)NCC(=O)N[C@@H](CCCNC(=N)N)C(=O)N[C@@H](CC(C)C)C(=O)N[C@@H](CCCCC)C(=O)N2CCC[C@H]2C(=O)N[C@@H](C(C)C)C(=O)N2CCC[C@H]2C(=O)N[C@H](C(=O)NCC(=O)O)CSCC(=O)N[C@@H](Cc2ccccc2)C(=O)N[C@@H](Cc2ccc(O)cc2)C(=O)N[C@@H](CC(=O)O)C1=O [Example 1109] ({CH2CO}-FYD[NHexGly]YVGRL[Ahp(2)]PVPCG-OH; thioether N-14)
39.1

Note down IC50 recorded for CCCCCCN1CC(=O)N[C@@H](Cc2ccc(O)cc2)C(=O)N[C@@H](CCCCN)C(=O)N[C@@H](CC(=O)O)C(=O)N[C@@H](CCCNC(=N)N)C(=O)N[C@@H](CC(C)C)C(=O)N[C@@H](CCCCC)C(=O)N2CCC[C@H]2C(=O)N[C@@H](C(C)C)C(=O)N[C@@H](CO)C(=O)N[C@H](C(=O)NCC(=O)O)CSCC(=O)N[C@@H](Cc2ccccc2)C(=O)N[C@@H](Cc2ccc(O)cc2)C(=O)N[C@@H](CC(=O)O)C1=O [Example 1052] ({CH2CO}-FYD[NHexGly]YKDRL[Ahp(2)]PVSCG-OH; thioether N-14)
27.1

New cases:
Give a short answer stating reported IC50 for CCCCCCN1CC(=O)N[C@@H](Cc2ccc(O)cc2)C(=O)N[C@@H](CCCC)C(=O)N[C@@H](CC(=O)O)C(=O)N[C@@H](CCCNC(=N)N)C(=O)N[C@@H](CC(C)C)C(=O)N[C@@H](CCCCC)C(=O)N2CCC[C@H]2C(=O)N[C@@H](C(C)C)C(=O)N[C@@H](CCCCC)C(=O)N[C@H](C(=O)NCC(=O)O)CSCC(=O)N[C@@H](Cc2ccccc2)C(=O)N[C@@H](Cc2ccc(O)cc2)C(=O)N[C@@H](CC(=O)O)C1=O [Example 1021] ({CH2CO}-FYD[NHexGly]Y[Nle]DRL[Ahp(2)]PV[Ahp(2)]CG-OH; thioether N-14) .
32.2
